The measurements presented in this section are drawn from paper PMC1142193.

- TARGET_ENTITY: SARS-CoV 3CL^Pro (Severe acute respiratory syndrome coronavirus, UniProt P0C6U8)
Exercise: state measured IC50 for each of the compounds provided.

See these solved cases before continuing.
Task: Could you please provide reported IC50 for Oc1cc(O)c2c(c1)O[C@H](c1ccc(O)c(O)c1)[C@H](O)C2 [EC, epicatechin] ? Thanks!
Result: ≥ 100 µM

Task: Item Oc1cc(O)c2c(c1)O[C@H](c1cc(O)c(O)c(O)c1)[C@H](O)C2 [EGC, epigallocatechin] : provide IC50
Result: ≥ 100 µM

Task: Give the reported IC50 for this compound. O=c1c(O)cc([C@H]2Oc3cc(O)cc(O)c3C[C@H]2O)cc2c([C@H]3Oc4cc(O)cc(O)c4C[C@H]3O)cc(O)c(O)c12
Result: 56 µM

Others:
Task: Please list IC50 recorded for the compound O=C(O[C@@H]1Cc2c(O)cc(O)cc2O[C@@H]1c1ccc(O)c(O)c1)c1cc(O)c(O)c(O)c1 [ECg, epicatechin gallate]
Result: ≥ 100 µM
